ELISA 1 ug/ml by entry:
target: T1, His-tagged cynomolgus monkey CD38 (ACRO Biosystems cat #CD8-05223) (cynomolgus monkey, UniProt Q5VAN0 43-301)
T1 construct: bought recombinant protein with His tag
testName: ELISA, coated His-CD38
quantityKind: ELISA 1 ug/ml

binder | result
40769p1.1.B12 (scFv, V domains shown, tested as scFv-Fc supernatant) VH: EVQLLESGGGLIQPGGSLRLSCTASGFDFSSYGMHWVRQAPGKGLEWVGIISDSGGTTYYADSVKGRFTISRDNSKNTMYLQMNSLRAEDTALYYCASYIMDVWGQGITVTVSS VL: QSVLTQPPSASGTPGQRVTISCSGSSSNVGGNSVYWYQQLPGTAPKLLFYGNHRRPSGVPDRFSGSKSGTSASLAISGLQSEDEADYYCAVWDDSLNAWVFGGGTKLTVL | 1.91
40566p1.A12 (scFv, V domains shown, tested as scFv-Fc supernatant; also called 40566p1.Al2) VH: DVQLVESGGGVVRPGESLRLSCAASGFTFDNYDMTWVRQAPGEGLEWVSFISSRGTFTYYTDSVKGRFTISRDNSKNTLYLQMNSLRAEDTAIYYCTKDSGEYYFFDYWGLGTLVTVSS VL: EIVMTQSPATLSVSPGERATFSCRASQSVNSKLAWYQQKPGQAPRLLIYDASRRATGIPDRFSGSGSGTEFTLTISSLQSEDFAVYYCQQYYDWPPLTFGGGTKVEIK | 1.89
40566p1.C1 (scFv, V domains shown, tested as scFv-Fc supernatant) VH: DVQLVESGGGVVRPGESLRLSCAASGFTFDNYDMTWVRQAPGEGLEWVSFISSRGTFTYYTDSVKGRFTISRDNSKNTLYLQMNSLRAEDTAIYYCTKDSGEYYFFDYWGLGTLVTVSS VL: ETVMTQSPATLSVSPGERATFSCRASQSVNSKLAWYQQKPGQAPRLLIYGASRRATGIPDRFSGSGSGTEFTLTISSLQSEDFAVYYCQQYYDWPPLTFGGGTKVEIK | 1.74
